meta.source: PubChem BioAssay

- TEST DESCRIPTION: calcium flux inhibitors in TRPC4/5HT1a cells, confirmation, counter-screen for TRPC4 inhibitor project, cell-based, second counter screen, HEK293 TRPC4/5HT1a, Fluo-4 (AID 434978);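 as to outcome: serotonin given first at submaximal then at maximal dose after compound preincubation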
- MEASUREMENT CONDITIONS: Fluo-4 calcium flux, at 10 µM, serotonin added to trigger calcium flux
The source made the active and inactive calls.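 The calls were made as follows: active = primary screen active whose calcium signal fell more than 3 SD beyond the full-serotonin control mean in both duplicate plates; inactive = the rest.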
The reply should name one outcome from yes (active), no (inactive)

Below, 8 molecules whose answers are already recorded.
MOLECULE | LABEL CLASS
CCOC(=O)c1c(NC(=O)COC(=O)Cc2c[nH]c3ccccc23)sc(C(=O)N(C)C)c1C | no
CN(C)C(CNC(=O)C1CCN(S(=O)(=O)c2cccc(C(F)(F)F)c2)CC1)c1ccccc1 (stereo not given) | no
Cc1ccc(-n2cc(CNCC3CC(=O)N(C4CC4)C3)c(-c3cccc(C)c3)n2)cc1 (stereo not given) | no
CCn1c(SCC(=O)c2cc(C)n(CC3CCCO3)c2C)nc2ccccc21 (stereo not given) | no
Cc1onc(-c2ccccc2)c1C(=O)NNC(=S)NC(=O)c1ccc(Cl)cc1Cl | no
Cc1ccccc1OCC(=O)NNC(=S)NC(=O)c1ccco1 | no
O=C(N/N=C/c1cc([N+](=O)[O-])cc(Br)c1O)C12CC3CCC(CC(C3)C1)C2 | no
Cn1c(-c2cccc3ccccc23)n[nH]c1=S | no

Recorded test outcome, item O=C(N/N=C/c1cccnc1)c1ccccc1OCc1ccc(Cl)cc1 yes

Recorded test outcome, item CN1CCN(c2ccc(C(F)(F)F)cc2NC(=O)Nc2ccccc2)CC1 no
